Tested on: CAKI-1 renal
Experiment: NCI-60 one-dose screen, 48 h (100 = growth as untreated, 0 = no growth, -100 = all killed)
Conditions: 10 µM unless noted
About 83,000 compounds went through this panel and 20% of them were active in at least one assay; those are over-represented in the sample as a whole. The source made the active and inactive calls. Rule for the calls: active = growth percent below 10; inactive = the rest.
List of growth values.
measured metric: growth

> print(dat)
                                   compound  measured.metric    value.measured
1  COc1cc2c(c(OC)c1)C1c3cc(OC)ccc3NC(=O)N1CC2 (stereo not given)           growth  77.8% (inactive)
2                            CCc1cccc(Cl)c1           growth   108% (inactive)
3  O=C(CSc1nccc(Nc2ccc(S(=O)(=O)Nc3ccccn3)cc2)n1)c1ccc(Cl)cc1           growth    83% (inactive)
4  COc1ccc(/C=C/C=C\C(=O)c2ccc(-n3ccnc3)cc2)cc1           growth  90.9% (inactive)
5  N#C/C(C(=O)c1ccccc1)=C1/C(=O)Nc2ccc(Br)cc21           growth    84% (inactive)

----------
Tested on: LOX IMVI melanoma
Assay: NCI-60 one-dose screen, 48 h
Details: 10 µM unless noted
This is part of a sample that, as a whole, favours compounds with a hit. Of some 83,000 tested, about 20% had one in any assay. Calls of active or inactive are those of the source. The calls were made as follows: active = growth percent below 10; inactive = the rest.
Possible outcomes: active, inactive

> print(dat)
                                    compound  assigned.category
 1         CCCCCCCCCCCCCC[n+]1cccc(C(N)=O)c1           inactive
 2  CCNC(=O)N1CCc2c(Cl)c3c(c(OC)c2[C@@H]1[C@H]1OCc2c1ccc(OC)c2OC)OCCO3           inactive
 3  COc1cc(C(=O)/C=C/c2c(-c3ccc(F)cc3)nc3sccn23)cc(OC)c1OC           inactive
 4  Oc1c(CNCCNCc2cc(Cl)cc(Cc3ccccc3)c2O)cc(Cl)cc1Cc1ccccc1             active
 5  CCOC(=O)COc1ccc2c(c1)O/C(=C\c1ccc(O)cc1)C2=O           inactive
 6        CCOC(=O)c1nc2c3ccccc3ccn2c1C(=O)OC           inactive
 7  COc1ccc(C2CC(c3ccc4ccccc4c3)=NN2c2nc(O)c(C3=c4cc(OC)ccc4=NC3=O)s2)cc1 (configuration not stated)             active
 8  CC1(C)CC[C@]2(C(N)=O)CC[C@]3(C)C(=CC[C@@H]4[C@@]5(C)C/C(=C/c6cccnc6)C(=O)C(C)(C)[C@@H]5CC[C@]43C)[C@@H]2C1             active
 9                  CC(=O)n1cc(C=O)c2ccccc21           inactive
10   Cc1cc(C)c(O)c(CNCCCNCc2cc(C)cc(C)c2O)c1           inactive
11  O=C(Nc1ccc(C(=O)/C=C/c2ccc(N3CCOCC3)cc2)cc1)Nc1ccc([N+](=O)[O-])cc1           inactive
12  CCCC(NC(=O)OCc1ccccc1)C(=O)O (configuration not stated)           inactive

This collection of values is drawn from PubChem BioAssay (NCI).
